System: PC-14
Experiment: relative viability (nuclei count vs DMSO), 5 days (fraction); higher = more cells survive
Settings: first compound 2.53 µM
Would you kindly list relative viability for each of these molecules?
Answers are plain numbers.

Some entries whose results are on file:
[
  {
    "molecule": "Cc1cnc(-c2cnc(NCCNc3ccc(C#N)cn3)nc2-c2ccc(Cl)cc2Cl)[nH]1 + Nc1ncn([C@H]2C[C@H](O)[C@@H](CO)O2)c(=O)n1 [Decitabine] (partner 2 µM)",
    "relative viability": 0.234
  },
  {
    "molecule": "O=c1[nH]c2ccccc2n1C1CCN(CCCC(c2ccc(F)cc2)c2ccc(F)cc2)CC1 [Pimozide] + C[C@@H](Oc1cc(-c2cnn(C3CCNCC3)c2)cnc1N)c1c(Cl)ccc(F)c1Cl [Crizotinib] (partner 1 µM)",
    "relative viability": 0.934
  },
  {
    "molecule": "O=c1[nH]c2ccccc2n1C1CCN(CCCC(c2ccc(F)cc2)c2ccc(F)cc2)CC1 [Pimozide] + COc1cc2c(Oc3ccc(NC(=O)C4(C(=O)Nc5ccc(F)cc5)CC4)cc3F)ccnc2cc1OCCCN1CCOCC1 [Foretinib] (partner 0.25 µM)",
    "relative viability": 0.965
  },
  {
    "molecule": "Cc1cnc(-c2cnc(NCCNc3ccc(C#N)cn3)nc2-c2ccc(Cl)cc2Cl)[nH]1 + N=C(N)NC(=N)NCCc1ccccc1 [Phenformin] (partner 250 µM)",
    "relative viability": 0.421
  },
  {
    "molecule": "O=c1[nH]c2ccccc2n1C1CCN(CCCC(c2ccc(F)cc2)c2ccc(F)cc2)CC1 [Pimozide] + Nc1ncn([C@H]2C[C@H](O)[C@@H](CO)O2)c(=O)n1 [Decitabine] (partner 2 µM)",
    "relative viability": 0.144
  }
]

Would you mind giving relative viability for every molecule in the list below?
1. O=c1[nH]c2ccccc2n1C1CCN(CCCC(c2ccc(F)cc2)c2ccc(F)cc2)CC1 [Pimozide] + CC1(C)CCC(c2ccc(Cl)cc2)=C(CN2CCN(c3ccc(C(=O)NS(=O)(=O)c4ccc(N[C@H](CCN5CCOCC5)CSc5ccccc5)c(S(=O)(=O)C(F)(F)F)c4)cc3)CC2)C1 [Navitoclax] (partner 0.5 µM)
2. O=c1[nH]c2ccccc2n1C1CCN(CCCC(c2ccc(F)cc2)c2ccc(F)cc2)CC1 [Pimozide] + Cc1cc(Nc2cc(N3CCN(C)CC3)nc(Sc3ccc(NC(=O)C4CC4)cc3)n2)n[nH]1 [Tozasertib] (partner 0.1 µM)
3. Cc1cnc(-c2cnc(NCCNc3ccc(C#N)cn3)nc2-c2ccc(Cl)cc2Cl)[nH]1 + C[C@]1(O)C[C@@H](c2nc(-c3ccc4ccc(-c5ccccc5)nc4c3)c3c(N)nccn32)C1 [Linsitinib] (partner 1 µM)

1. 1.09
2. 0.519
3. 0.834

Would you mind giving relative viability for every molecule in the list below?
1. Cc1cnc(-c2cnc(NCCNc3ccc(C#N)cn3)nc2-c2ccc(Cl)cc2Cl)[nH]1 + Cc1cc(Nc2cc(N3CCN(C)CC3)nc(Sc3ccc(NC(=O)C4CC4)cc3)n2)n[nH]1 [Tozasertib] (partner 0.1 µM)
2. Cc1cnc(-c2cnc(NCCNc3ccc(C#N)cn3)nc2-c2ccc(Cl)cc2Cl)[nH]1 + COc1cc2c(Oc3ccc(NC(=O)C4(C(=O)Nc5ccc(F)cc5)CC4)cc3F)ccnc2cc1OCCCN1CCOCC1 [Foretinib] (partner 0.25 µM)
3. Cc1cnc(-c2cnc(NCCNc3ccc(C#N)cn3)nc2-c2ccc(Cl)cc2Cl)[nH]1 + CC(=O)Nc1cccc(-n2c(=O)n(C3CC3)c(=O)c3c(Nc4ccc(I)cc4F)n(C)c(=O)c(C)c32)c1 [Trametinib] (partner 0.02 µM)
4. O=c1[nH]c2ccccc2n1C1CCN(CCCC(c2ccc(F)cc2)c2ccc(F)cc2)CC1 [Pimozide] + CCNC(=O)c1noc(-c2cc(C(C)C)c(O)cc2O)c1-c1ccc(CN2CCOCC2)cc1 [Luminespib] (partner 0.01 µM)

[0.549, 0.894, 0.825, 0.15]

====

Would you kindly list relative viability for each of these compounds?
System: NCI-H2405
Experiment: relative viability (nuclei count vs DMSO), 5 days (fraction); higher = more cells survive
Details: first compound 0.1581 µM
Give bare numbers.

[
  {
    "compound": "Nc1ccn([C@@H]2O[C@H](CO)[C@@H](O)[C@@H]2O)c(=O)n1 [Cytarabine] + COc1cc2c(Oc3ccc(NC(=O)C4(C(=O)Nc5ccc(F)cc5)CC4)cc3F)ccnc2cc1OCCCN1CCOCC1 [Foretinib] (partner 0.25 µM)",
    "relative viability": 0.618
  },
  {
    "compound": "COc1cc2nccc(Oc3ccc(NC(=O)Nc4cc(C)on4)c(Cl)c3)c2cc1OC [Tivozanib] + COc1cccc2cc(-c3nc([C@H]4CC[C@H](C(=O)O)CC4)n4ncnc(N)c34)[nH]c12 [OSI-027] (partner 0.5 µM)",
    "relative viability": 0.526
  },
  {
    "compound": "Nc1ccn([C@@H]2O[C@H](CO)[C@@H](O)[C@@H]2O)c(=O)n1 [Cytarabine] + O=C(c1cc(Cc2n[nH]c(=O)c3ccccc23)ccc1F)N1CCN(C(=O)C2CC2)CC1 [Olaparib] (partner 8 µM)",
    "relative viability": 0.396
  }
]

Quick one: relative viability for COc1cc2nccc(Oc3ccc(NC(=O)Nc4cc(C)on4)c(Cl)c3)c2cc1OC [Tivozanib] + CS(=O)(=O)N1CCN(Cc2cc3nc(-c4cccc5[nH]ncc45)nc(N4CCOCC4)c3s2)CC1 [Pictilisib] (partner 1 µM) ?
0.312

====

Test system: HCC-15
Assay: relative viability (nuclei count vs DMSO), 5 days (fraction); higher = more cells survive
Conditions: first compound 0.02 µM
measured_metric: relative viability

Quick one: relative viability for CC(=O)O[C@@]12CO[C@@H]1C[C@H](O)[C@@]1(C)C(=O)[C@H](O)C3=C(C)[C@@H](OC(=O)[C@H](O)[C@@H](NC(=O)OC(C)(C)C)c4ccccc4)C[C@@](O)([C@@H](OC(=O)c4ccccc4)[C@H]21)C3(C)C [Docetaxel] + Cc1cc(Nc2cc(N3CCN(C)CC3)nc(Sc3ccc(NC(=O)C4CC4)cc3)n2)n[nH]1 [Tozasertib] (partner 0.1 µM) ?
0.135

====

System: NCI-H2170
Assay: relative viability (nuclei count vs DMSO), 5 days (fraction); higher = more cells survive
Settings: first compound 0.8 µM
measured_metric: relative viability
One number for each entry.

[
  {
    "compound": "O=c1[nH]c2ccccc2n1C1CCN(CCCC(c2ccc(F)cc2)c2ccc(F)cc2)CC1 [Pimozide] + O=C(c1cc(Cc2n[nH]c(=O)c3ccccc23)ccc1F)N1CCN(C(=O)C2CC2)CC1 [Olaparib] (partner 8 µM)",
    "system_name": "NCI-H2170",
    "relative viability": 0.608
  }
]

Quick one: relative viability for O=c1[nH]c2ccccc2n1C1CCN(CCCC(c2ccc(F)cc2)c2ccc(F)cc2)CC1 [Pimozide] + COc1cccc2cc(-c3nc([C@H]4CC[C@H](C(=O)O)CC4)n4ncnc(N)c34)[nH]c12 [OSI-027] (partner 0.5 µM) ?
0.681

====

Tested on: HCC-78
Test: relative viability (nuclei count vs DMSO), 5 days (fraction); higher = more cells survive
Conditions: first compound 0.1581 µM
Would you kindly list relative viability for each of these molecules?
Answers are plain numbers.

Some entries whose results are on file:
[
  {
    "molecule": "COc1cc2nccc(Oc3ccc(NC(=O)Nc4cc(C)on4)c(Cl)c3)c2cc1OC [Tivozanib] + Cc1cc(Nc2cc(N3CCN(C)CC3)nc(Sc3ccc(NC(=O)C4CC4)cc3)n2)n[nH]1 [Tozasertib] (partner 0.1 µM)",
    "relative viability": 0.501
  },
  {
    "molecule": "Nc1ccn([C@@H]2O[C@H](CO)[C@@H](O)[C@@H]2O)c(=O)n1 [Cytarabine] + COc1cccc2cc(-c3nc([C@H]4CC[C@H](C(=O)O)CC4)n4ncnc(N)c34)[nH]c12 [OSI-027] (partner 0.5 µM)",
    "relative viability": 0.242
  },
  {
    "molecule": "Nc1ccn([C@@H]2O[C@H](CO)[C@@H](O)[C@@H]2O)c(=O)n1 [Cytarabine] + Cc1nc(Nc2ncc(C(=O)Nc3c(C)cccc3Cl)s2)cc(N2CCN(CCO)CC2)n1 [Dasatinib] (partner 0.075 µM)",
    "relative viability": 0.228
  }
]

// below: relative viability requested for another molecule
Quick one: relative viability for COc1cc2nccc(Oc3ccc(NC(=O)Nc4cc(C)on4)c(Cl)c3)c2cc1OC [Tivozanib] + CC(C)C[C@H](NC(=O)[C@H](Cc1ccccc1)NC(=O)c1cnccn1)B(O)O [Bortezomib] (partner 0.002 µM) ?
0.549

====

System: NCI-H1915
Assay: relative viability (nuclei count vs DMSO), 5 days (fraction); higher = more cells survive
Conditions: first compound 5 µM
API: label(entry) gives y if the entry's relative viability is strictly smaller than 0.7; on equality or larger values it gives n.

[
  {
    "compound": "O=C(O)CCCCC(CCSCc1ccccc1)SCc1ccccc1 (stereo not given) [CPI-613] + Cc1cc(Nc2cc(N3CCN(C)CC3)nc(Sc3ccc(NC(=O)C4CC4)cc3)n2)n[nH]1 [Tozasertib] (partner 0.1 µM)",
    "answer_label": "y"
  },
  {
    "compound": "O=C(O)CCCCC(CCSCc1ccccc1)SCc1ccccc1 (stereo not given) [CPI-613] + CC(=O)Nc1cccc(-n2c(=O)n(C3CC3)c(=O)c3c(Nc4ccc(I)cc4F)n(C)c(=O)c(C)c32)c1 [Trametinib] (partner 0.02 µM)",
    "answer_label": "y"
  },
  {
    "compound": "O=C(O)CCCCC(CCSCc1ccccc1)SCc1ccccc1 (stereo not given) [CPI-613] + CC(=O)c1c(C)c2cnc(Nc3ccc(N4CCNCC4)cn3)nc2n(C2CCCC2)c1=O [Palbociclib] (partner 0.5 µM)",
    "answer_label": "y"
  }
]

Kindly review the next compound as well.
Please state whether relative viability is below 0.7 for O=C(O)CCCCC(CCSCc1ccccc1)SCc1ccccc1 (stereo not given) [CPI-613] + CC1(C)CCC(c2ccc(Cl)cc2)=C(CN2CCN(c3ccc(C(=O)NS(=O)(=O)c4ccc(N[C@H](CCN5CCOCC5)CSc5ccccc5)c(S(=O)(=O)C(F)(F)F)c4)cc3)CC2)C1 [Navitoclax] (partner 0.5 µM)
n
